assay: Assay of blood AP4 A and ATP before and after AP4 A infusion in rabbits (in vivo); design: species or system rabbit; details: rabbit, blood, iv; in vivo; 0 min after infusion (50 mg/kg over 2 h); read-out: AP4 A, umol/l blood
Measured quantity: concentration at 0 h
Please give the number followed by its unit.

concentration at 0 h for "Nc1ncnc2c1ncn2[C@@H]1O[C@H](COP(=O)(O)OP(=O)(O)OP(=O)(O)OP(=O)(O)OC[C@H]2O[C@@H](n3cnc4c(N)ncnc43)[C@H](O)[C@@H]2O)[C@@H](O)[C@H]1O" is 6.41 µmol/L

---

experiment: Assay of blood AP4 A and ATP before and after AP4 A infusion in rabbits (in vivo); design: species or system rabbit; details: rabbit, blood, iv; in vivo; 10 min after infusion (50 mg/kg over 2 h); read-out: AP4 A, umol/l blood
Measured quantity: concentration at 10 min (µmol/L)
Write down the numeric answer in µmol/L and omit the unit.

concentration at 10 min for "Nc1ncnc2c1ncn2[C@@H]1O[C@H](COP(=O)(O)OP(=O)(O)OP(=O)(O)OP(=O)(O)OC[C@H]2O[C@@H](n3cnc4c(N)ncnc43)[C@H](O)[C@@H]2O)[C@@H](O)[C@H]1O" is 0.043

---

test: Assay of blood AP4 A and ATP before and after AP4 A infusion in rabbits (in vivo); set-up: species or system rabbit; settings: rabbit, blood, iv; in vivo; 60 min after infusion (50 mg/kg over 2 h); read-out: AP4 A, umol/l blood
Measured quantity: concentration at 1 h (µmol/L)
Write down the numeric answer in µmol/L and omit the unit.

concentration at 1 h for "Nc1ncnc2c1ncn2[C@@H]1O[C@H](COP(=O)(O)OP(=O)(O)OP(=O)(O)OP(=O)(O)OC[C@H]2O[C@@H](n3cnc4c(N)ncnc43)[C@H](O)[C@@H]2O)[C@@H](O)[C@H]1O" is 0.042

---

assay: Decay of AP4 A / ATP in incubated rabbit blood collected at the end of AP4 A infusion (ex vivo); format: in vitro ADME; settings: rabbit, blood, iv, 50 mg/kg; ex vivo; 60 min at 37° C.; read-out: AP4 A, umol/l blood
Measured quantity: concentration at 1 h
Please give the number followed by its unit.

concentration at 1 h for Nc1ncnc2c1ncn2[C@@H]1O[C@H](COP(=O)(O)OP(=O)(O)OP(=O)(O)OP(=O)(O)OC[C@H]2O[C@@H](n3cnc4c(N)ncnc43)[C@H](O)[C@@H]2O)[C@@H](O)[C@H]1O [AP4 A] is 0.037 µmol/L

---

test: Decay of AP4 A / ATP in incubated rabbit blood collected at the end of AP4 A infusion (ex vivo); type: in vitro ADME; settings: rabbit, blood, iv, 50 mg/kg; ex vivo; 40 min at 37° C.; read-out: AP4 A, umol/l blood
Measured quantity: concentration at 40 min (µmol/L)
Write down the numeric answer in µmol/L and omit the unit.

concentration at 40 min for Nc1ncnc2c1ncn2[C@@H]1O[C@H](COP(=O)(O)OP(=O)(O)OP(=O)(O)OP(=O)(O)OC[C@H]2O[C@@H](n3cnc4c(N)ncnc43)[C@H](O)[C@@H]2O)[C@@H](O)[C@H]1O [AP4 A] is 0.041

---

test: Assay of blood AP4 A and ATP before and after AP4 A infusion in rabbits (in vivo); parameters: species or system rabbit; conditions: rabbit, blood, iv; in vivo; 40 min after infusion (50 mg/kg over 2 h); read-out: AP4 A, umol/l blood
Measured quantity: concentration at 40 min

concentration at 40 min for "Nc1ncnc2c1ncn2[C@@H]1O[C@H](COP(=O)(O)OP(=O)(O)OP(=O)(O)OP(=O)(O)OC[C@H]2O[C@@H](n3cnc4c(N)ncnc43)[C@H](O)[C@@H]2O)[C@@H](O)[C@H]1O" is 0.05 µmol/L

This collection of values is drawn from patent US5049550A.
